pKi: −log10 of the molar value.
Endpoint: pKi. System: Stromelysin-1 (Homo sapiens, UniProt P08254). Items follow.
Sequence (P08254 whole entry): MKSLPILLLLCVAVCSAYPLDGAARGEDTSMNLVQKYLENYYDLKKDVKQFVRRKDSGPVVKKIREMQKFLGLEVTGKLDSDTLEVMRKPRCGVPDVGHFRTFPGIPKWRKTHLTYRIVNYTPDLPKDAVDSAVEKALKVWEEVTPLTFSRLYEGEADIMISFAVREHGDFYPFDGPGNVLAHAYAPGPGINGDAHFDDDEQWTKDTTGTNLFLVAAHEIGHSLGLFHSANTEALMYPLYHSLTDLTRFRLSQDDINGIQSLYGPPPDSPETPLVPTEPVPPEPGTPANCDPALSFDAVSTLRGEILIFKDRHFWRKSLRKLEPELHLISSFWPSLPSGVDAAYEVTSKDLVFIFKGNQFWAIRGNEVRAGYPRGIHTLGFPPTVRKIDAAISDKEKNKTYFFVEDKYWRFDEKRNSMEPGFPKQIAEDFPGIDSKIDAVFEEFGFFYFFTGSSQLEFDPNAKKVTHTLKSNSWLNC
PROPERTY MEASURED: pKi

- MOLECULE: "Cc1ccc(CCC[C@H](CP(=O)(O)O)C(=O)N[C@@H](CC2CCCCC2)C(=O)NCCc2ccccc2)cc1 (stereo in doubt; form 1)"
  MEASURED VALUE: 4.67
- MOLECULE: "Cc1ccc(CCC[C@H](CC(=O)O)C(=O)N[C@@H](CC2CCCCC2)C(=O)NCCCCN2CCOCC2)cc1"
  MEASURED VALUE: 6.45
- MOLECULE: "Cc1ccc(CCC[C@H](CP(=O)(O)O)C(=O)N[C@@H](CC2CCCCC2)C(=O)NCCc2ccccc2)cc1 (stereo in doubt; form 2)"
  MEASURED VALUE: 6.56
- MOLECULE: "NC(=O)[C@H](CC1CCCCC1)NC(=O)[C@H](CCCc1ccccc1)CC(=O)O"
  MEASURED VALUE: 5.51
- MOLECULE: "COC(=O)CCNC(=O)[C@H](CC1CCCCC1)NC(=O)[C@H](CCCc1ccc(C)cc1)CC(=O)O"
  MEASURED VALUE: 6.45
- MOLECULE: "Cc1ccc(CCC[C@H](CC(=O)O)C(=O)N[C@@H](CC2CCCCC2)C(=O)NCCc2ccc(S(N)(=O)=O)cc2)cc1"
  MEASURED VALUE: 6.42
- MOLECULE: "Cc1ccc(CCC[C@H](CC(=O)O)C(=O)N[C@@H](CC2CCCCC2)C(=O)NCCc2ccccc2)cc1"
  MEASURED VALUE: 6.33

###

Recorded below: Ki, system Interstitial collagenase (Homo sapiens, UniProt P03956).

- COMPOUND STRUCTURE STRING: "COC(=O)CCNC(=O)[C@H](CC1CCCCC1)NC(=O)[C@H](CCCc1ccc(C)cc1)CC(=O)O"
  TARGET DESC: "Interstitial collagenase (Homo sapiens, UniProt P03956)"
  VALUE UNIT: "µM"
  Ki: 41.4
- COMPOUND STRUCTURE STRING: "COc1ccc(CCC[C@H](CC(=O)O)C(=O)N[C@@H](CC2CCCCC2)C(=O)NCCc2ccc(S(N)(=O)=O)cc2)cc1"
  TARGET DESC: "Interstitial collagenase (Homo sapiens, UniProt P03956)"
  VALUE UNIT: "µM"
  Ki: 10
- COMPOUND STRUCTURE STRING: "Cc1ccc(CCC[C@H](CC(=O)O)C(=O)N[C@@H](CC2CCCCC2)C(=O)NCCC(=O)O)cc1"
  TARGET DESC: "Interstitial collagenase (Homo sapiens, UniProt P03956)"
  VALUE UNIT: "µM"
  Ki: 100
- COMPOUND STRUCTURE STRING: "NC(=O)CCCNC(=O)[C@H](CC1CCCCC1)NC(=O)[C@H](CCCc1ccccc1)CC(=O)O"
  TARGET DESC: "Interstitial collagenase (Homo sapiens, UniProt P03956)"
  VALUE UNIT: "µM"
  Ki: 28.4

###

pKi: −log10 of the molar value.
Test system 72 kDa type IV collagenase (Homo sapiens), pKi listed for each of the compounds.
PROPERTY MEASURED: pKi

- COMPOUND STRUCTURE STRING: "Cc1ccc(CCC[C@H](CC(=O)O)C(=O)N[C@@H](CC2CCCCC2)C(=O)NCCC(=O)O)cc1"
  MEASURED VALUE: 8.42
- COMPOUND STRUCTURE STRING: "COc1ccc(CCC[C@H](CC(=O)O)C(=O)N[C@@H](CC2CCCCC2)C(=O)NCCc2ccc(S(N)(=O)=O)cc2)cc1"
  MEASURED VALUE: 8.74
- COMPOUND STRUCTURE STRING: "Cc1ccc(CCC[C@H](CC(=O)O)C(=O)N[C@@H](CC2CCCCC2)C(=O)NCCCCN2CCOCC2)cc1"
  MEASURED VALUE: 7.99
- COMPOUND STRUCTURE STRING: "NC(=O)[C@H](CC1CCCCC1)NC(=O)[C@H](CCCc1ccccc1)CC(=O)O"
  MEASURED VALUE: 6.91

###

TARGET DESC: Interstitial collagenase (Homo sapiens)
Sequence (P03956 whole entry): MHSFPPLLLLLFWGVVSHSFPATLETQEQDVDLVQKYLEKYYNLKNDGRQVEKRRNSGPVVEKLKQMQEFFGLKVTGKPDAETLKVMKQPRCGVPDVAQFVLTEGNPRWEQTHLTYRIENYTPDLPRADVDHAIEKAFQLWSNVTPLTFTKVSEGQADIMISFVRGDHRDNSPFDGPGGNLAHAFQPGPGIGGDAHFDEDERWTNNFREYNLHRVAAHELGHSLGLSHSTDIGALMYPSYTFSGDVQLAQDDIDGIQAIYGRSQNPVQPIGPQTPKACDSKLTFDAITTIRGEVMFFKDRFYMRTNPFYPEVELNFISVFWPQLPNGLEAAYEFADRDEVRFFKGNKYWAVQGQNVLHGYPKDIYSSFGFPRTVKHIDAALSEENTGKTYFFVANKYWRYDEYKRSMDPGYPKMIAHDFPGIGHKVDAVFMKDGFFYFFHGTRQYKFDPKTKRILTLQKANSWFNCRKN
PROPERTY MEASURED: Ki (µM)

- COMPOUND STRUCTURE STRING: "Cc1ccc(CCC[C@H](CC(=O)O)C(=O)N[C@@H](CC2CCCCC2)C(=O)NCCc2ccc(S(N)(=O)=O)cc2)cc1"
  PROPERTY MEASURED: "Ki"
  MEASURED VALUE: 47.8
- COMPOUND STRUCTURE STRING: "O=C(O)CCNC(=O)[C@H](CC1CCCCC1)NC(=O)[C@H](CCCc1ccccc1)CP(=O)(O)O"
  PROPERTY MEASURED: "Ki"
  MEASURED VALUE: 22.1
- COMPOUND STRUCTURE STRING: "Cc1ccc(CCC[C@H](CC(=O)O)C(=O)N[C@@H](CC2CCCCC2)C(=O)NCCc2ccccc2)cc1"
  PROPERTY MEASURED: "Ki"
  MEASURED VALUE: 22.1
